procedure_summary: NCI Yeast Anticancer Drug Screen. Data for the mlh1 rad18 strain (AID 175)
assay_context: S. cerevisiae mlh1 rad18 strain growth inhibition; at 50.0 µM (retest, dose inferred, filed as 5.0)
Compounds without any hit were thinned out: in the full panel of roughly 79,000, 15% have a hit. The source made the active and inactive calls. No stated cut-off is given here; in the data, active means growth inhibition above about 70%; inactive means the rest.
Please reply with one of these outcomes: y (active), n (inactive)

Use these answered entries as a reference point.
[
  {
    "compound": "Cc1c(C)c(C[P+](CCP(c2ccccc2)c2ccccc2)(c2ccccc2)c2ccccc2)c(C)c(C)c1C[P+](CCP(c1ccccc1)c1ccccc1)(c1ccccc1)c1ccccc1",
    "cat": "n"
  },
  {
    "compound": "c1ccc2c(c1)Nc1ccc3ccccc3c1S2",
    "cat": "n"
  },
  {
    "compound": "CN(c1ccc(C(N)=O)cc1)c1c(O)c2ccccc2[nH]c1=O",
    "cat": "n"
  }
]

input: Which outcome did this test record for the compound CCS(=O)(=O)C(C(O)C(O)C(O)C(O)CO)S(=O)(=O)CC (stereo unspecified) ?
output: n

input: Tell me the assay call for `O=C1c2ccccc2C(=O)c2c1cccc2[N+](=O)[O-]` please.
output: y

input: Record request — test call for `CO/N=C/c1ccc([N+](=O)[O-])s1`
output: y

input: Recorded call for `COc1cccc2c1N[S@](=O)S2` ?
output: y

input: Which outcome was entered for the compound `CC(=O)Oc1c(C)cc(C)cc1Cc1cc(C(C)=O)cc(Cc2cc(C)cc(C)c2OC(C)=O)c1OC(C)=O` in this test?
output: y

input: Would you mind telling me which call this test gave `O=C1CN=C(c2ccccc2)N(c2ccccc2)N1` ?
output: y

input: In this assay, the call recorded for N#CC1Sc2ccccc2N1C(=O)Oc1ccccc1 (stereo unspecified) was what?
output: y

----------
procedure_summary: NCI Yeast Anticancer Drug Screen. Data for the sgs1 mgt1 strain (AID 161);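 further: 0% = growth of cultures given vehicle only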
assay_context: S. cerevisiae sgs1 mgt1 strain, at 50.0 µM, active compounds read high
The panel holds about 79,000 compounds, 15% with a hit somewhere; the sample as a whole holds those more often.
measured_attribute: growth inhibition (%)
Give bare numbers, in %.

Answered examples (4):
[
  {
    "compound": "C=C1OC(=O)C(=O)N1CC(=O)O",
    "unit_abbreviation": "%",
    "measured_result": -5.5
  },
  {
    "compound": "COC(=O)/C=C1/OC(c2ccccc2)=C(C)C1=O",
    "unit_abbreviation": "%",
    "measured_result": 48.9
  },
  {
    "compound": "C[n+]1c(-c2ccc(/C=N\\Nc3nnc(S)n3/N=C/c3ccc(-c4cn5ccccc5[n+]4C)cc3)cc2)cn2ccccc21",
    "unit_abbreviation": "%",
    "measured_result": 95.8
  },
  {
    "compound": "O=C(NCCCN1CCN(CCCNC(=O)c2cc(-c3ccccc3)nc3ccccc23)CC1)c1cc(-c2ccccc2)nc2ccccc12",
    "unit_abbreviation": "%",
    "measured_result": 8.55
  }
]

Give measured growth inhibition for every item shown.
1. CCCC(=O)Nc1cc([N+](=O)[O-])ccc1O
2. COc1ccc(C2c3cc4c(cc3OC(O)C2C)OCO4)cc1 (stereo not given)
3. Cc1cc2c(cc1C)C(=O)OC2=O
4. O=C(NC(Cc1ccc(I)cc1)C(=O)O)c1cccc(Br)c1 (stereo not given)

output:
1. 63.2
2. 98.3
3. 36.3
4. -20.5

// batch mode: one growth inhibition value per listed entry
1. O=C1c2ccc(O)cc2C(=O)c2c1ccc(O)c2O
2. CC(C)(C)c1ccc2c(c1)CNCCNCc1cc(C(C)(C)C)ccc1OCC1(CO2)COc2ccc(C(C)(C)C)cc2CNCCNCc2cc(C(C)(C)C)ccc2OC1

output:
[83, 92.2]

Value source: PubChem BioAssay (NCI)
